test system: HepG2; assay: Antitumor activity against human HepG2 cells; type: functional, cell-based
Quantity measured: EC50 (nM)
Report as a plain number; the unit nM is understood.

Inquiry: Given Cc1cc(C=C2C(=O)C=CC2=O)cc(C)c1O , state its recorded EC50.
Reply text: 2070

* * *

molecular target: Casein kinase I isoform gamma-2 (Homo sapiens) (UniProt P78368)
Sequence (P78368 whole entry, looked up, canonical isoform): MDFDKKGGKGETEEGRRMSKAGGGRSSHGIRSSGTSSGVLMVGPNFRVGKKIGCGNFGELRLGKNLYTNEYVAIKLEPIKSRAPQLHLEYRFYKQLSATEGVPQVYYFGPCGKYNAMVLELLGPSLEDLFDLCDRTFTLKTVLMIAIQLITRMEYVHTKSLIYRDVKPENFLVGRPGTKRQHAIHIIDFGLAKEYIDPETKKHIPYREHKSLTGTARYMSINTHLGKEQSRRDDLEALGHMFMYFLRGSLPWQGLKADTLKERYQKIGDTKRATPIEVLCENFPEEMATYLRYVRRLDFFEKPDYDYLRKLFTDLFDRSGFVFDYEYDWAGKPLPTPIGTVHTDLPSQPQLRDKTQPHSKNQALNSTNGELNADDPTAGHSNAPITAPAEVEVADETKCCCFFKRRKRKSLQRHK
Quantity measured: ΔTm (°C)
Give the value, in units of °C, as a plain number.

[[record]]
structure_as_smiles = "COc1cc2ncnc(Nc3cccc(Br)c3)c2cc1OC"
reported_measurement = 0.6

[[record]]
structure_as_smiles = "Cn1cnc2c(NCc3ccccc3)nc(NCCO)nc21"
reported_measurement = 0.5

[[record]]
structure_as_smiles = "O=S(=O)(NCCNC/C=C/c1ccc(Br)cc1)c1cccc2cnccc12"
reported_measurement = 0.1

[[record]]
structure_as_smiles = "Cc1nc2sccn2c(=O)c1CCN1CCC(=C(c2ccccc2)c2ccc(F)cc2)CC1"
reported_measurement = 0.3

[[record]]
structure_as_smiles = "O=c1cc(N2CCOCC2)oc2c(-c3ccccc3)cccc12"
reported_measurement = 0.4


Inquiry: Fill in: ΔTm of O=c1ccc2ccc(O)c(O)c2o1 is ___
Reply text: 0.1

Inquiry: Quick one: ΔTm of CCN(CC)CCNC(=O)c1c(C)[nH]c(/C=C2\C(=O)Nc3ccc(Cl)cc32)c1C ?
Reply text: 4

Inquiry: Look up ΔTm for this molecule: COc1cc2ncnc(Nc3cccc(O)c3)c2cc1OC
Reply text: 1.5

Inquiry: # lookup: ΔTm of CCOc1cc2ncnc(Nc3cccc(Br)c3)c2cc1OCC
Reply text: 0.6

Inquiry: Which ΔTm value is on record for CC(C)(C)n1nc(-c2ccc(Cl)cc2)c2c(N)ncnc21 ?
Reply text: 0.8
